experiment.notes: pharmacokinetic properties test in rats
Assay type: in vivo
measurement.context: SD rat, 1 mg/kg intravenous injection, single, plasma
observed.property: AUC(0-t)

Consider the molecule N#Cc1ccc(S(=O)(=O)N2CC(=C3CN(C(=O)[C@H](CO)c4ccccc4)C3)C2)cc1 and give its measured AUC(0-t).
0.394 µg·h/mL

Consider the molecule O=C([C@H](CO)c1ccc(F)cc1F)N1CC(=C2CN(S(=O)(=O)c3ccccn3)C2)C1 and give its measured AUC(0-t).
0.537 µg·h/mL

###

experiment.notes: pharmacokinetic properties test in dogs
Format: in vivo
measurement.context: dog; Beagle, 5 mg/kg oral gavage, single, fasted, plasma; read-out: MRT0-t
observed.property: MRT last (h)
The figure you give is taken to be in h; do not add the unit.

Consider the molecule N#Cc1ccc(S(=O)(=O)N2CC(=C3CN(C(=O)[C@H](CO)c4ccccc4)C3)C2)cc1 and give its measured MRT last.
5.28

Consider the molecule O=C([C@H](CO)c1ccc(F)cc1F)N1CC(=C2CN(S(=O)(=O)c3ccccn3)C2)C1 and give its measured MRT last.
4.51

###

experiment.notes: pharmacokinetic properties test in rats
Type: in vivo
measurement.context: SD rat, 10 mg/kg oral gavage, single, fasted, plasma
observed.property: Cmax (ng/mL)
The figure you give is taken to be in ng/mL; do not add the unit.

Consider the molecule O=C([C@H](CO)c1ccc(F)cc1F)N1CC(=C2CN(S(=O)(=O)c3ccccn3)C2)C1 and give its measured Cmax.
1740

Consider the molecule N#Cc1ccc(S(=O)(=O)N2CC(=C3CN(C(=O)[C@H](CO)c4ccccc4)C3)C2)cc1 and give its measured Cmax.
993

###

experiment.notes: pharmacokinetic properties test in mice
Type: in vivo
measurement.context: ICR mouse, 10 mg/kg oral gavage, single, fasted, plasma
Kindly supply the reported Tmax values for the records listed here.
Remember to quote the unit after the number.

Consider the compound O=C([C@H](CO)c1ccc(F)cc1F)N1CC(=C2CN(S(=O)(=O)c3ccccn3)C2)C1 [Compound 83] and give its measured Tmax.
15 min

Consider the compound N#Cc1ccc(S(=O)(=O)N2CC(=C3CN(C(=O)[C@H](CO)c4ccccc4)C3)C2)cc1 [Compound 65] and give its measured Tmax.
19.8 min

###

experiment.notes: pharmacokinetic properties test in mice
Assay type: in vivo
measurement.context: ICR mouse, 1 mg/kg intravenous injection, single, plasma
Kindly supply the reported Tmax values for the records listed here.

Consider the compound O=C([C@H](CO)c1ccc(F)cc1F)N1CC(=C2CN(S(=O)(=O)c3ccccn3)C2)C1 [Compound 83] and give its measured Tmax.
4.8 min

Consider the compound N#Cc1ccc(S(=O)(=O)N2CC(=C3CN(C(=O)[C@H](CO)c4ccccc4)C3)C2)cc1 [Compound 65] and give its measured Tmax.
4.8 min

###

Kindly supply the reported AC50 values for the records listed here.
target: PKR in ex vivo red blood cells from healthy individuals (Homo sapiens)
Construct: endogenous in cells; host or cells: human red blood cells isolated from fresh peripheral blood of healthy individuals
Sequence (P30613 whole entry): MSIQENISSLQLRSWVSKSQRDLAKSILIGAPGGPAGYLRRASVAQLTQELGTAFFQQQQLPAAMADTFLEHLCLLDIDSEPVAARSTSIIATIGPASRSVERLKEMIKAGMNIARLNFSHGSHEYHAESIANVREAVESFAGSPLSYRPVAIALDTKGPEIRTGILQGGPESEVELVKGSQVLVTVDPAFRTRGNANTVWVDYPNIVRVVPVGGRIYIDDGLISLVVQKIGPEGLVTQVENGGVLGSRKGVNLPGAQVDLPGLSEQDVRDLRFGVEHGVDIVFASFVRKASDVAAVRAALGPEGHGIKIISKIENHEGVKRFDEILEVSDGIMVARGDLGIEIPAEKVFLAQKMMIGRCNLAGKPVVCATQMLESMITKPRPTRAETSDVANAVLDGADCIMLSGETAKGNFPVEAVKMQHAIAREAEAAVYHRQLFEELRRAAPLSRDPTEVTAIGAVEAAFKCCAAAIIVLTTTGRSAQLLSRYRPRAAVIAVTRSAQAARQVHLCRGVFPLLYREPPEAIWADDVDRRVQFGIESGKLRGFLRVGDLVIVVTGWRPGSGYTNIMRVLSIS
experiment.notes: ex vivo pyruvate kinase (PKR) activity experiment, red blood cells of healthy individuals
Format: cell-based
measurement.context: 3 hours co-cultivation

Lab note: need AC50 with PKR in ex vivo red blood cells from healthy individuals (Homo sapiens) for entry O=C([C@H](CO)c1ccccc1)N1CC(=C2CN(S(=O)(=O)c3cnc4c(c3)OCCO4)C2)C1 , please look it up.
101 to 300 nM

Lab note: need AC50 with PKR in ex vivo red blood cells from healthy individuals (Homo sapiens) for entry COc1ccc(S(=O)(=O)N2CC(=C3CN(C(=O)[C@H](CO)c4ccccc4)C3)C2)cc1 , please look it up.
101 to 300 nM

Lab note: need AC50 with PKR in ex vivo red blood cells from healthy individuals (Homo sapiens) for entry O=C([C@H](CO)c1ccccc1)N1CC(=C2CN(S(=O)(=O)c3ccc4c(c3)OCCO4)C2)C1 , please look it up.
300 to 1000 nM

###

target: recombinant human PKR (Homo sapiens, UniProt P30613)
Sequence (P30613 whole entry): as above
experiment.notes: pyruvate kinase (PKR) activity test, activation of recombinant enzyme (fluorescence kit)
Assay type: biochemical
observed.property: AC50

Consider the compound Cc1ccc(C(CO)C(=O)N2CC(=C3CN(S(=O)(=O)c4ccccn4)C3)C2)cc1 (stereo not drawn) [Compound 57] and give its measured AC50.
101 to 300 nM

Consider the compound O=C(N1CC(=C2CN(S(=O)(=O)c3ccccn3)C2)C1)C1(c2ccccc2)CCOCC1 [Compound 58] and give its measured AC50.
101 to 300 nM

Consider the compound O=C(N1CC(=C2CN(S(=O)(=O)c3ccc(OC(F)F)cc3)C2)C1)C1(c2ccccc2)CCOCC1 [Compound 14] and give its measured AC50.
101 to 300 nM

Consider the compound CNCC(C(=O)N1CC(=C2CN(S(=O)(=O)c3ccc4c(c3)OCCO4)C2)C1)c1cccc(Cl)c1 (stereo not drawn) [Compound 26] and give its measured AC50.
< 100 nM

Consider the compound O=C(C(CF)c1ccccc1)N1CC(=C2CN(S(=O)(=O)c3ccccn3)C2)C1 (stereo not drawn) [Compound 73] and give its measured AC50.
101 to 300 nM

Consider the compound O=C(C(CO)c1ccc(F)cc1)N1CC(=C2CN(S(=O)(=O)c3ccc4c(c3)OCCO4)C2)C1 (stereo not drawn) [Compound 18] and give its measured AC50.
< 100 nM

Consider the compound O=C(C(O)c1ccccc1)N1CC(=C2CN(S(=O)(=O)c3ccc(OC(F)F)cc3)C2)C1 (stereo not drawn) [Compound 8] and give its measured AC50.
300 to 1000 nM

Consider the compound Cc1nc2ccc(S(=O)(=O)N3CC(=C4CN(C(=O)[C@H](CO)c5ccccc5)C4)C3)cc2s1 [Compound 35] and give its measured AC50.
< 100 nM

Consider the compound O=C(N1CC(=C2CN(S(=O)(=O)c3ccc4ncsc4c3)C2)C1)C1(c2ccccc2)CCOCC1 [Compound 29] and give its measured AC50.
< 100 nM

Consider the compound [2H]C([2H])([2H])Oc1ccc(S(=O)(=O)N2CC(=C3CN(C(=O)[C@H](CO)c4ccccc4)C3)C2)nc1 [Compound 91] and give its measured AC50.
< 100 nM

Consider the compound O=C(c1c[nH]c2ccccc12)N1CC(=C2CN(S(=O)(=O)c3ccccn3)C2)C1 [Compound 56] and give its measured AC50.
300 to 1000 nM

Consider the compound COc1ccc(C(CO)C(=O)N2CC(=C3CN(S(=O)(=O)c4ccccn4)C3)C2)cc1 (stereo not drawn) [Compound 53] and give its measured AC50.
300 to 1000 nM

Consider the compound O=C(C(CO)c1ccc(F)cc1)N1CC(=C2CN(S(=O)(=O)c3cnc4c(c3)OCCO4)C2)C1 (stereo not drawn) [Compound 19] and give its measured AC50.
101 to 300 nM

Consider the compound O=C(C(CO)c1ccc2c(c1)NCCO2)N1CC(=C2CN(S(=O)(=O)c3ccccn3)C2)C1 (stereo not drawn) [Compound 79] and give its measured AC50.
< 100 nM

Consider the compound O=C([C@H](CO)c1ccccc1)N1CC(=C2CN(S(=O)(=O)c3ccc(OC(F)F)cn3)C2)C1 [Compound 80] and give its measured AC50.
< 100 nM

Consider the compound O=C(C(CO)c1ccc(C(F)(F)F)cc1)N1CC(=C2CN(S(=O)(=O)c3ccccn3)C2)C1 (stereo not drawn) [Compound 78] and give its measured AC50.
300 to 1000 nM

Consider the compound O=C(N1CC(=C2CN(S(=O)(=O)c3ccccn3)C2)C1)C1(c2ccccc2)COC1 [Compound 89] and give its measured AC50.
101 to 300 nM

Consider the compound O=C(C1NCc2ccccc21)N1CC(=C2CN(S(=O)(=O)c3ccc4ncsc4c3)C2)C1 (stereo not drawn) [Compound 64] and give its measured AC50.
300 to 1000 nM

Consider the compound CN1CCOc2ccc(S(=O)(=O)N3CC(=C4CN(C(=O)[C@H](CO)c5ccccc5)C4)C3)cc21 [Compound 39] and give its measured AC50.
< 100 nM

Consider the compound O=C(C(CO)c1ccccc1)N1CC(=C2CN(S(=O)(=O)c3ccc(OC(F)F)cc3)C2)C1 (stereo not drawn) [Compound 6] and give its measured AC50.
< 100 nM

Consider the compound O=C(C(CO)c1ccc(F)cc1)N1CC(=C2CN(S(=O)(=O)c3ccc4ncsc4c3)C2)C1 (stereo not drawn) [Compound 50] and give its measured AC50.
< 100 nM

Consider the compound COc1ccc(S(=O)(=O)N2CC(=C3CN(C(=O)[C@H](CO)c4ccccc4)C3)C2)nc1 [Compound 67] and give its measured AC50.
< 100 nM

Consider the compound O=C(Cc1ccccc1)N1CC(=C2CN(S(=O)(=O)c3ccc4ncsc4c3)C2)C1 [Compound 47] and give its measured AC50.
300 to 1000 nM

Consider the compound O=C(C(CO)c1ccc(F)cc1F)N1CC(=C2CN(S(=O)(=O)c3ccccn3)C2)C1 (stereo not drawn) [Compound 74] and give its measured AC50.
< 100 nM
